Test system: P12-Ichikawa
Test: AUC of viability dose-response curve (% viability x log10 dose units); higher = less sensitive
Details: HPLM + 10% dialyzed FBS; 48 h
Reported endpoint: AUC of viability dose-response curve
Please give the numeric answer without any surrounding text.

Smiles representation	Experimental result
c1ccc2c(CCNc3ccc(Nc4ccncc4)cc3)c[nH]c2c1	444

INPUT: Name the recorded AUC of viability dose-response curve for C/C=C(\C)C(=O)N[C@@H](c1ccccc1)[C@@H](O)C(=O)O[C@H]1C[C@@]2(O)[C@@H](OC(=O)c3ccccc3)[C@@H]3[C@]4(OC(C)=O)CO[C@@H]4C[C@H](O)[C@@]3(C)C(=O)[C@H](OC(C)=O)C(=C1C)C2(C)C .
OUTPUT: 102

INPUT: For Cc1noc(N[S+](=O)([O-])c2ccc(N)cc2)c1C , what is its reported AUC of viability dose-response curve?
OUTPUT: 460

INPUT: Could you tell me which AUC of viability dose-response curve is on file for CCOc1cc(C(=O)Nc2ccc(Cl)c(-c3nc4ccccc4[nH]3)c2)cc(OCC)c1OCC ?
OUTPUT: 431

INPUT: Param item = COc1cc2cc(c1Cl)N(C)C(=O)C[C@H](OC(=O)C(C)C)[C@]1(C)O[C@@H]1[C@H](C)[C@@H]1C[C@@](O)(NC(=O)O1)[C@H](OC)/C=C/C=C(\C)C2 ; retrieve measured AUC of viability dose-response curve.
OUTPUT: 37.9

INPUT: Recorded AUC of viability dose-response curve of Cc1nnc(C(C)C)n1[C@@H]1C[C@H]2CC[C@@H](C1)N2CC[C@H](NC(=O)C1CCC(F)(F)CC1)c1ccccc1 , please.
OUTPUT: 460

INPUT: Dear colleague, I am looking for the recorded AUC of viability dose-response curve of the following compound: CC[C@H](C)C(=O)O[C@H]1C[C@@H](C)\C=C2\C=C/[C@H](C)[C@H](CC[C@@H]3C[C@@H](O)CC(=O)O3)[C@@H]12
OUTPUT: 415

INPUT: Dear colleague, I am looking for the recorded AUC of viability dose-response curve of the following compound: N#CC1(c2cccc(C(=O)Nc3cc(Oc4ccc5nc(NC(=O)C6CC6)sc5n4)ccc3F)c2Cl)CC1
OUTPUT: 372

* * *

System: NOMO1
Experiment: cell viability relative to DMSO control; higher = less cytotoxic
Conditions: RPMI 5 mM glucose + 10% FBS; 48 h; 0.0211 µM
Quick reference: cell viability of the listed items.
Write the answer as a number in %, unit excluded.

> print(dat)
                      smiles.representation  reported.endpoint  experimental.result
1  O=C(NOCC1CC1)c1ccc(F)c(F)c1Nc1ccc(I)cc1Cl     cell viability                  112
2  Cc1cccc(-c2[nH]c(C(C)(C)C)nc2-c2ccc3nccnc3c2)n1     cell viability                  124
3  C[C@]12CC[C@H]3[C@@H](CC[C@@]45O[C@@H]4C(O)=C(C#N)C[C@]35C)[C@@H]1CC[C@@H]2O     cell viability                  127
4  CCCCN1CCC(CNC(=O)c2c3n(c4ccccc24)CCCO3)CC1     cell viability                  111
5  C[C@H](NC(=O)[C@@H](O)c1cc(F)cc(F)c1)C(=O)N[C@@H]1C(=O)N(C)c2ccccc2-c2ccccc21     cell viability                  122

INPUT: Requested read-out: cell viability. Entry: COc1cc(N2CCN(C)CC2)ccc1Nc1nc(N)c(C(=O)c2c(Cl)cccc2Cl)s1
OUTPUT: 98.7

* * *

Test system: P12-Ichikawa
Assay: cell viability relative to DMSO control; higher = less cytotoxic
Settings: RPMI 5 mM glucose + 10% dialyzed FBS; 48 h; 0.00702 µM
Quick reference: cell viability of the listed items.
Express your answer in %, writing the number without its unit.

INPUT: Param item = Cn1cnc(N)c2ncnc1-2 ; retrieve measured cell viability.
OUTPUT: 117

INPUT: Quick one: cell viability of OC1=C(Cl)C=C(N\C2=C(\C(=O)NC2=O)C3=C(C=CC=C3)[N+]([O-])=O)C=C1 ?
OUTPUT: 112

INPUT: Could you tell me which cell viability is on file for COc1cc2c(cc1O)CCC1C2CC[C@@]2(C)C1CC[C@@H]2O (some centres undefined) ?
OUTPUT: 115

INPUT: I would be grateful if you could share the reported cell viability for Cc1cnc(Nc2cccc(CN3CCOCC3)c2)nc1Nc1cccc([S+](=O)([O-])NC(C)(C)C)c1 .
OUTPUT: 82.6

* * *

System: SEM cells
Assay: cell viability relative to DMSO control; higher = less cytotoxic
Details: RPMI 5 mM glucose + 10% dialyzed FBS; 48 h; 5.12 µM
cell viability reference
Provide the reading as a plain figure in %.

Worked set:
Compound	Measured target	cell viability / %
Nc1nccc(-c2ccc3noc(-c4ccc(Cl)cc4)c3c2)n1	SEM cells	108
CCC(=O)O[C@@]1(CC[C@H]2[C@@H]3CCC/4=C/C(=O)CC[C@]4(C)[C@H]3CC[C@]12C)C(=O)CO	SEM cells	27.6
Cn1cnc(N)c2ncnc1-2	SEM cells	24.8

INPUT: Hello, I am looking for reported cell viability with SEM cells for CN(C)CCc1c[nH]c2ccc(Cn3cncn3)cc12 . Could you help?
OUTPUT: 9.37

INPUT: Lab request: please report cell viability under test system SEM cells for Cc1ccc(C(=O)Nc2ccc([S+](=O)([O-])O)c3cc([S+](=O)([O-])O)cc([S+](=O)([O-])O)c23)cc1NC(=O)c1cccc(NC(=O)Nc2cccc(C(=O)Nc3cc(C(=O)Nc4ccc([S+](=O)([O-])O)c5cc([S+](=O)([O-])O)cc([S+](=O)([O-])O)c45)ccc3C)c2)c1
OUTPUT: 55.1

INPUT: Kindly state the measured cell viability obtained for CC1=CC/2=C(C=C1C)N(C[C@@H](O)[C@@H](O)[C@@H](O)CO)C/3=N/C(=O)NC(=O)C3=N2 with SEM cells.
OUTPUT: 117

INPUT: Under SEM cells: cell viability value of COc1cc2c(cc1OC)CN(CCc1ccc(NC(=O)c3cccc4c(=O)c5cccc(OC)c5[nH]c34)cc1)CC2 ?
OUTPUT: 11.2

INPUT: API: value(readout= cell viability, system= SEM cells, query= Cc1nnc(C(C)C)n1[C@@H]1C[C@H]2CC[C@@H](C1)N2CC[C@H](NC(=O)C1CCC(F)(F)CC1)c1ccccc1 )
OUTPUT: 105

INPUT: Give the reported cell viability for COc1ccc(/C=C/C(=O)Nc2ccccc2C(=O)O)cc1OC (system: SEM cells).
OUTPUT: 116

* * *

Each entry below lists one item and its recorded cell viability value.
Tested on: P12-Ichikawa
Experiment: cell viability relative to DMSO control; higher = less cytotoxic
Conditions: RPMI 5 mM glucose + 10% FBS; 48 h; 0.569 µM
In your response, put the unit directly after the numeric value.

Consider the worked cases shown below.
> print(dat)
                                   molecule  reported.endpoint  experimental.result
1  CC(=O)N(O)CCCCCNC(=O)CCC(=O)N(O)CCCCCNC(=O)CCC(=O)N(O)CCCCCN.C[S+](=O)([O-])O     cell viability                13.2%
2  CC(C)[C@]12O[C@H]1[C@@H]3O[C@@]34[C@@]5(C)CC\C6=C(COC6=O)/[C@@H]5C[C@@H]7O[C@]47[C@@H]2O     cell viability                   7%
3  CCN1\C=C(C(O)=O)/C(=O)C2=C1C(=C(N3CCNC(C)C3)C(=C2)F)F (configuration not stated)     cell viability                 114%

Lab note: next molecule to report on.
INPUT: Look up cell viability: NCCOc1cc(C(=O)Nc2cc(OCCN)c3ccccc3n2)nc(C(=O)Nc2cc(OCCN)c3ccccc3n2)c1
OUTPUT: 15.7%

* * *

Tested on: NOMO1
Test: AUC of viability dose-response curve (% viability x log10 dose units); higher = less sensitive
Settings: RPMI 5 mM glucose + 10% FBS; 48 h
# AUC of viability dose-response curve values compiled below
Lab note: record the figure alone, no unit after it.

Solved cases (4 shown):
> print(dat)
                      smiles.representation  measured.target  experimental.result
1  Cc1nc(-c2ccc(-c3ccc(C(=O)N4CCc5cc6c(cc54)C4(CCN(C)CC4)CO6)cc3)c(C)c2)no1            NOMO1                  477
2  CC(C)[C@H](C(=O)Nc1ccc(C(=O)NO)cc1)c1ccccc1            NOMO1                  368
3  COC1=CC(c2cc3ccccc3[nH]2)=N/C1=C/c1[nH]c(C)cc1C            NOMO1                  470
4                        F\C1=C\NC(=O)NC1=O            NOMO1                  437

Then this compound:
INPUT: Recorded AUC of viability dose-response curve of O=C(NOCC1CC1)c1ccc(F)c(F)c1Nc1ccc(I)cc1Cl , please.
OUTPUT: 389

This collection of values is drawn from the supplement of paper PMC11451515.
